The reported numbers originate from the NIST ThermoML archive (doi:10.1021/je200195q).

Here, each record is paired with measured activity coefficient data.
Experiment: activity coefficient (dimensionless); of the first substance listed, at infinite dilution; xn = mol fraction of the nth substance listed
Settings: 343.15 K; 101 kPa; Liquid; Chromatography; x1 = 0
API doc: respond with a numeric literal and nothing else, no unit.

These recorded examples may help you get a feel for the data.
INSERT INTO results (compound, measured_value) VALUES
  ('CCCO [propan-1-ol] + CCCCCCCCCCn1cc[n+](CCCCCCCCCC)c1C.O=S(=O)([N-]S(=O)(=O)C(F)(F)F)C(F)(F)F', 1.06),
  ('CCCC(C)=O [pentan-2-one] + CCCCCCCCCCn1cc[n+](CCCCCCCCCC)c1C.O=S(=O)([N-]S(=O)(=O)C(F)(F)F)C(F)(F)F', 0.407),
  ('c1ccsc1 [thiophene] + CCCCCCCCCCn1cc[n+](CCCCCCCCCC)c1C.O=S(=O)([N-]S(=O)(=O)C(F)(F)F)C(F)(F)F', 0.424),
  ('CCC[N+](=O)[O-] [1-nitropropane] + CCCCCCCCCCn1cc[n+](CCCCCCCCCC)c1C.O=S(=O)([N-]S(=O)(=O)C(F)(F)F)C(F)(F)F', 0.479),
  ('c1ccncc1 [pyridine] + CCCCCCCCCCn1cc[n+](CCCCCCCCCC)c1C.O=S(=O)([N-]S(=O)(=O)C(F)(F)F)C(F)(F)F', 0.334);

Ask: Name the reported activity coefficient value associated with the compound CCCCCCC [heptane] + CCCCCCCCCCn1cc[n+](CCCCCCCCCC)c1C.O=S(=O)([N-]S(=O)(=O)C(F)(F)F)C(F)(F)F
Result: 2.08

Ask: Any idea what activity coefficient was measured for CCCCCCCCCC [decane] + CCCCCCCCCCn1cc[n+](CCCCCCCCCC)c1C.O=S(=O)([N-]S(=O)(=O)C(F)(F)F)C(F)(F)F ?
Result: 3.33

Ask: Look up activity coefficient for this compound: CC1CCCC1 [methylcyclopentane] + CCCCCCCCCCn1cc[n+](CCCCCCCCCC)c1C.O=S(=O)([N-]S(=O)(=O)C(F)(F)F)C(F)(F)F
Result: 1.3

Ask: Look up activity coefficient: C=O [methanal] + CCCCCCCCCCn1cc[n+](CCCCCCCCCC)c1C.O=S(=O)([N-]S(=O)(=O)C(F)(F)F)C(F)(F)F
Result: 0.085
